Assignment: determine reported %Inh for the given molecules.
Test system: MARK1
Assay Setup: concentration: 1 μM, replicates: in singlicate; n = 1
One number for each entry, in %.

Molecule: COc1cc(Nc2nccc(N3CCC(NC(=O)C(C)c4ccc(Cl)cc4)C3)n2)cc(OC)c1OC (stereo not drawn)
System Tested: MARK1
Quantity Unit: %
%Inh: 0
--
Molecule: COc1ccc(-c2cc3c(C)nc(N)nc3n([C@H]3CC[C@H](OCCO)CC3)c2=O)cn1
System Tested: MARK1
Quantity Unit: %
%Inh: 0
--
Molecule: Cc1nc(N(C)[C@H]2CN(C(=O)CC#N)CC[C@H]2C)c2cc[nH]c2n1
System Tested: MARK1
Quantity Unit: %
%Inh: 9
--
Molecule: Cc1nn2c(=O)cc(N3CCOCC3)nc2n1Cc1cccc(Cl)c1Cl
System Tested: MARK1
Quantity Unit: %
%Inh: 0
--
Molecule: O=C(NCc1cccs1)c1cc(C(=O)c2c(Cl)cccc2Cl)c[nH]1
System Tested: MARK1
Quantity Unit: %
%Inh: 0
--
Molecule: OCCCNc1nccc(-c2c(-c3cccc(C(F)(F)F)c3)nn3cc(C(F)(F)F)ccc23)n1
System Tested: MARK1
Quantity Unit: %
%Inh: 0
--
Molecule: COc1cccc(C2=C(N(C)c3ccccc3)C(=O)NC2=O)c1
System Tested: MARK1
Quantity Unit: %
%Inh: 0
--
Molecule: CN(C)c1cc(-c2ccc3c(N)n[nH]c3c2)nc(N)n1
System Tested: MARK1;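 further: KINOMEscan kinase panel screen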
Quantity Unit: %
%Inh: 0

Any idea what %Inh came out for Nc1ncnc2c1ncn2-c1cccc2ccccc12 on MARK1?
23
